These data points were gathered from patent US20260069656A1.

test system: kinase activity of SEQID-00338 (AMP + ATP→2ADP); experiment: Kinase activity of SEQID-00338 and mutants, ADP-Glo Max Assay; format: biochemical; details: 7 μg/mL, 30 minute reaction at 30° C.; N=2
Each record here notes measured AVG proportion activity, percentage AMP + ATP→2ADP converted relative to wild-type.
Express your answer in %, writing the number without its unit.

Recorded AVG proportion activity, percentage AMP + ATP→2ADP converted relative to wild-type, per entry:
1. R42G: single amino acid mutant of SEQID-00338 at substrate binding position 42 (protein, listed as Saccharomyces cerevisiae, strain ATCC 204508 / S288c) MSSSESIRMVLIGPPGAGKGTQAPNLQERFHAAHLATGDMLGSQIAKGTQLGLEAKKIMDQGGLVSDDIMVNMIKDELTNNPACKNGFILDGFPRTIPQAEKLDQMLKEQGTPLEKAIELKVDDELLVARITGRLIHPASGRSYHKIFNPPKEDMKDDVTGEALVQRSDDNADALKKRLAAYHAQTEPIVDFYKKTGIWAGVDASQPPATVWADILNKLGKD = 1.2
2. D91I: single amino acid mutant of SEQID-00338 at magnesium ion binding site position 91 (protein, listed as Saccharomyces cerevisiae, strain ATCC 204508 / S288c) MSSSESIRMVLIGPPGAGKGTQAPNLQERFHAAHLATGDMLRSQIAKGTQLGLEAKKIMDQGGLVSDDIMVNMIKDELTNNPACKNGFILIGFPRTIPQAEKLDQMLKEQGTPLEKAIELKVDDELLVARITGRLIHPASGRSYHKIFNPPKEDMKDDVTGEALVQRSDDNADALKKRLAAYHAQTEPIVDFYKKTGIWAGVDASQPPATVWADILNKLGKD = 0.4

Turning now to a further molecule:
Given item R42A: single amino acid mutant of SEQID-00338 at substrate binding position 42 (protein, listed as Saccharomyces cerevisiae, strain ATCC 204508 / S288c) MSSSESIRMVLIGPPGAGKGTQAPNLQERFHAAHLATGDMLASQIAKGTQLGLEAKKIMDQGGLVSDDIMVNMIKDELTNNPACKNGFILDGFPRTIPQAEKLDQMLKEQGTPLEKAIELKVDDELLVARITGRLIHPASGRSYHKIFNPPKEDMKDDVTGEALVQRSDDNADALKKRLAAYHAQTEPIVDFYKKTGIWAGVDASQPPATVWADILNKLGKD , the value recorded as its AVG proportion activity, percentage AMP + ATP→2ADP converted relative to wild-type is 0.9
